Assay: in vivo
Conditions: BALB/c, mouse, plasma, po, 10 mg/kg
quantity: Tmax (h)
Give the quantity in h, number only.

Item CCOc1ccc2cc(-c3nn(CC4CCN(C)CC4)c4ncnc(N)c34)ccc2c1 has what recorded Tmax? 2

Item CCOc1ccc2cc(-c3nn(CC4CCN(C)CC4)c4ncnc(N)c34)ccc2n1 has what recorded Tmax? 3.33

* * *

Target: Calmodulin-domain protein kinase 1 (Toxoplasma gondii, UniProt Q9BJF5)
Sequence (Q9BJF5 whole entry): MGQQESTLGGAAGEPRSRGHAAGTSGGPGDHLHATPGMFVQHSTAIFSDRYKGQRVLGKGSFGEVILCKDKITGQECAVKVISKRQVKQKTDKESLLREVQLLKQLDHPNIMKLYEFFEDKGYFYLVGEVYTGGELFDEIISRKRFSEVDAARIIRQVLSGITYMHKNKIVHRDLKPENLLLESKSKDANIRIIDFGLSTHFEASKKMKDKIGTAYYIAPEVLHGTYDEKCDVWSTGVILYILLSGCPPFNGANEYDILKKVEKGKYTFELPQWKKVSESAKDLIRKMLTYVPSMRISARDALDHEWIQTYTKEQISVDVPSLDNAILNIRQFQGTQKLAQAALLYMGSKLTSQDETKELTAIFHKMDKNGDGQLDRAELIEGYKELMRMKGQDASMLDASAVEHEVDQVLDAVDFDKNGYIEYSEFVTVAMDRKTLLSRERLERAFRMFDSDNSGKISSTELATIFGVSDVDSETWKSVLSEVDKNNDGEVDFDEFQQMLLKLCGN
Reported log10 of IC50 by item:
Hi team, quick reminder: these entries are log10 of IC50 (nM).

Use these answered entries as a reference point.
[
  {
    "entry-smiles": "Nc1ncnc2c1c(-c1ccc3cc(OC4CC4)ccc3c1)nn2CC1CCOCC1",
    "tested-on": "Calmodulin-domain protein kinase 1 (Toxoplasma gondii, UniProt Q9BJF5)",
    "log10 of IC50": 0.38
  },
  {
    "entry-smiles": "CCOc1ccc2cc(-c3nn(CC4CN(C)C4)c4ncnc(N)c34)ccc2c1",
    "tested-on": "Calmodulin-domain protein kinase 1 (Toxoplasma gondii, UniProt Q9BJF5)",
    "log10 of IC50": 0.78
  },
  {
    "entry-smiles": "CN1CCC(Cn2nc(-c3ccc4cc(OC5CC5)ccc4c3)c3c(N)ncnc32)CC1",
    "tested-on": "Calmodulin-domain protein kinase 1 (Toxoplasma gondii, UniProt Q9BJF5)",
    "log10 of IC50": 0.18
  },
  {
    "entry-smiles": "CC(C)(CO)Cn1nc(-c2ccc3nc(OCC(F)(F)F)ccc3c2)c2c(N)ncnc21",
    "tested-on": "Calmodulin-domain protein kinase 1 (Toxoplasma gondii, UniProt Q9BJF5)",
    "log10 of IC50": 1.23
  },
  {
    "entry-smiles": "CCOc1ccc2cc(-c3nn(CC4CN(C(C)=O)C4)c4ncnc(N)c34)ccc2c1",
    "tested-on": "Calmodulin-domain protein kinase 1 (Toxoplasma gondii, UniProt Q9BJF5)",
    "log10 of IC50": 0.60
  }
]

Query the reported log10 of IC50 for Calmodulin-domain protein kinase 1 (Toxoplasma gondii, UniProt Q9BJF5); item: CCOc1ccc2cc(-c3nn(CC4CCN(C)CC4)c4ncnc(N)c34)ccc2n1 0.79

Query the reported log10 of IC50 for Calmodulin-domain protein kinase 1 (Toxoplasma gondii, UniProt Q9BJF5); item: CCOc1ccc2cc(-c3nn(CC4CNC4)c4ncnc(N)c34)ccc2c1 0.51

Query the reported log10 of IC50 for Calmodulin-domain protein kinase 1 (Toxoplasma gondii, UniProt Q9BJF5); item: CCOc1ccc2cc(-c3nn(CC4CCN(C(C)C)CC4)c4ncnc(N)c34)ccc2c1 1.00

Query the reported log10 of IC50 for Calmodulin-domain protein kinase 1 (Toxoplasma gondii, UniProt Q9BJF5); item: CCOc1ccc2cc(-c3nn(CC4CCOCC4)c4ncnc(N)c34)ccc2c1 0.30

Query the reported log10 of IC50 for Calmodulin-domain protein kinase 1 (Toxoplasma gondii, UniProt Q9BJF5); item: CC1(Cn2nc(-c3ccc4cc(OC5CC5)ccc4c3)c3c(N)ncnc32)COC1 0.32

Query the reported log10 of IC50 for Calmodulin-domain protein kinase 1 (Toxoplasma gondii, UniProt Q9BJF5); item: CC(C)Cn1nc(-c2ccc3cc(OC4CC4)ccc3c2)c2c(N)ncnc21 0.04

Query the reported log10 of IC50 for Calmodulin-domain protein kinase 1 (Toxoplasma gondii, UniProt Q9BJF5); item: CN1CCC(Cn2nc(-c3ccc4cc(OC5COC5)ccc4c3)c3c(N)ncnc32)CC1 1.00

* * *

Assay: in vivo
Details: BALB/c, mouse, plasma, po, 10 mg/kg
quantity: CL/F (mL/min)
Give the quantity in mL/min, number only.

[
  {
    "entry-smiles": "CCOc1ccc2cc(-c3nn(CC4CCN(C)CC4)c4ncnc(N)c34)ccc2c1",
    "CL/F (mL/min)": 0.7
  },
  {
    "entry-smiles": "CCOc1ccc2cc(-c3nn(CC4CCN(C(C)=O)CC4)c4ncnc(N)c34)ccc2c1",
    "CL/F (mL/min)": 2.5
  },
  {
    "entry-smiles": "Nc1ncnc2c1c(-c1ccc3nc(OC4CC4)ccc3c1)nn2CC1CCOCC1",
    "CL/F (mL/min)": 110
  },
  {
    "entry-smiles": "CCOc1ccc2cc(-c3nn(CC4CCN(C)CC4)c4ncnc(N)c34)ccc2n1",
    "CL/F (mL/min)": 1.8
  },
  {
    "entry-smiles": "CC(C)(CO)Cn1nc(-c2ccc3nc(OC4CC4)ccc3c2)c2c(N)ncnc21",
    "CL/F (mL/min)": 21
  },
  {
    "entry-smiles": "CCOc1ccc2cc(-c3nn(CC(C)(C)O)c4ncnc(N)c34)ccc2n1",
    "CL/F (mL/min)": 0.2
  }
]

Item CC(C)(CO)Cn1nc(-c2ccc3cc(OC4CC4)ccc3c2)c2c(N)ncnc21 has what recorded CL/F? 6.7

* * *

Reported pIC50 by item:
Target: Voltage-gated inwardly rectifying potassium channel KCNH2 (Homo sapiens)
Reminder that pIC50 means the negative base-10 logarithm of the concentration expressed in mol/L.

[
  {
    "entry-smiles": "CN1CCC(Cn2nc(-c3ccc4cc(OC5CC5)ccc4c3)c3c(N)ncnc32)CC1",
    "endpoint-result": 6.43
  }
]

Item CC1(Cn2nc(-c3ccc4cc(OC5CC5)ccc4c3)c3c(N)ncnc32)COC1 has what recorded pIC50? 5.72

Item CCOc1ccc2cc(-c3nn(CC4CCN(C(C)C)CC4)c4ncnc(N)c34)ccc2c1 has what recorded pIC50? 6.52

Item CCOc1ccc2cc(-c3nn(CC4CCN(C)CC4)c4ncnc(N)c34)ccc2c1 has what recorded pIC50? 6.40

* * *

Reported pIC50 by item:
Target: Proto-oncogene tyrosine-protein kinase Src (Gallus gallus, UniProt P00523)
Reminder that pIC50 means the negative base-10 logarithm of the concentration expressed in mol/L.

[
  {
    "entry-smiles": "CC(C)(CO)Cn1nc(-c2ccc3nc(OC4CC4)ccc3c2)c2c(N)ncnc21",
    "tested-on": "Proto-oncogene tyrosine-protein kinase Src (Gallus gallus, UniProt P00523)",
    "pIC50": 5.13
  },
  {
    "entry-smiles": "Nc1ncnc2c1c(-c1ccc3cc(OC4CC4)ccc3c1)nn2CC1CCOCC1",
    "tested-on": "Proto-oncogene tyrosine-protein kinase Src (Gallus gallus, UniProt P00523)",
    "pIC50": 6.43
  },
  {
    "entry-smiles": "CC(C)Cn1nc(-c2ccc3cc(OC4CC4)ccc3c2)c2c(N)ncnc21",
    "tested-on": "Proto-oncogene tyrosine-protein kinase Src (Gallus gallus, UniProt P00523)",
    "pIC50": 5.43
  }
]

Please look at the following molecule next.
Query the reported pIC50 for Proto-oncogene tyrosine-protein kinase Src (Gallus gallus, UniProt P00523); item: CCOc1ccc2cc(-c3nn(CC4CN(C(C)=O)C4)c4ncnc(N)c34)ccc2c1 5.96

* * *

Reported half-life by item:
Test: in vivo
Settings: BALB/c, mouse, plasma, po, 10 mg/kg
Number plus unit, in that order.

[
  {
    "entry-smiles": "CC(C)(CO)Cn1nc(-c2ccc3nc(OC4CC4)ccc3c2)c2c(N)ncnc21",
    "half-life": "0.683 h"
  }
]

Please look at the following compound next.
Item CCOc1ccc2cc(-c3nn(CC4CCN(C)CC4)c4ncnc(N)c34)ccc2n1 has what recorded half-life? 3.72 h

* * *

Molecular target: Voltage-gated inwardly rectifying potassium channel KCNH2 (Homo sapiens, UniProt Q12809)
Sequence (Q12809 whole entry): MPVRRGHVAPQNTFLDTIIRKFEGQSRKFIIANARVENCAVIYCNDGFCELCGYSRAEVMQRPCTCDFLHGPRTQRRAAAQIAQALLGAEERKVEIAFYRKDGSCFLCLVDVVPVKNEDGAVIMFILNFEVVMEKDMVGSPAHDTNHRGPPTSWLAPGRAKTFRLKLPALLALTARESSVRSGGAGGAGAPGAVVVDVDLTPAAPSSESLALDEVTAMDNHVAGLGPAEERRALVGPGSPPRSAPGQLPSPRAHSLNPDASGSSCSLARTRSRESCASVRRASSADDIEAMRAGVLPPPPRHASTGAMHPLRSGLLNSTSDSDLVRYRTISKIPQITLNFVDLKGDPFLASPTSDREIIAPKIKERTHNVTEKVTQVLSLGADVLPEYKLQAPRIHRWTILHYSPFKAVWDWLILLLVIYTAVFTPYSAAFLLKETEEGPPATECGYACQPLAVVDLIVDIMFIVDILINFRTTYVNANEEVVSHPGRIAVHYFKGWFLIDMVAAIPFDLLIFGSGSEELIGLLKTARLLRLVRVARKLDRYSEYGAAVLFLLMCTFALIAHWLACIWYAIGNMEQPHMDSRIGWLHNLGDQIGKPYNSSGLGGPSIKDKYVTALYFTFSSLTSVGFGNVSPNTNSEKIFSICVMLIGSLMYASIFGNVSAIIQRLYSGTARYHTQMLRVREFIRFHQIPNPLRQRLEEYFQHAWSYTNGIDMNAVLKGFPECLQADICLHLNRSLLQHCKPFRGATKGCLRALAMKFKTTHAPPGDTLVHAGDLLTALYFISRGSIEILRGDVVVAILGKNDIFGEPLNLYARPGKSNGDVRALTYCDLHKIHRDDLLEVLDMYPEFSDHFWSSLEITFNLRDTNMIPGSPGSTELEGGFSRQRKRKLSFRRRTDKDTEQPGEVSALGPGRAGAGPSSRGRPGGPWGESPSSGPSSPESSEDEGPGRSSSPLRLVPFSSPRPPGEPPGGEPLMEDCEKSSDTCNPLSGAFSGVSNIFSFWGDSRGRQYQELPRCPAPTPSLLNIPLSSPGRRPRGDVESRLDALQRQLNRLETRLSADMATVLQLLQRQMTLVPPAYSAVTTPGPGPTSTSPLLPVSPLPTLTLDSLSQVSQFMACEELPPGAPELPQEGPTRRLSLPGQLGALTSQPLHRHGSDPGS
Reported pIC50 by item:
Reminder that pIC50 means the negative base-10 logarithm of the concentration expressed in mol/L.

[
  {
    "entry-smiles": "CN1CCC(Cn2nc(-c3ccc4cc(OC5CCC5)ccc4c3)c3c(N)ncnc32)CC1",
    "tested-on": "Voltage-gated inwardly rectifying potassium channel KCNH2 (Homo sapiens, UniProt Q12809)",
    "quantity": "pIC50",
    "endpoint-result": 6.70
  }
]

Please look at the following compound next.
Item CCOc1ccc2cc(-c3nn(CC4CCN(C)CC4)c4ncnc(N)c34)ccc2n1 has what recorded pIC50? 5.00

* * *

Reported Cmax by item:
Experiment: in vivo
Settings: BALB/c, mouse, plasma, po, 10 mg/kg
Number plus unit, in that order.

Use these answered entries as a reference point.
[
  {
    "entry-smiles": "CC(C)(CO)Cn1nc(-c2ccc3nc(OC4CC4)ccc3c2)c2c(N)ncnc21",
    "quantity": "Cmax",
    "endpoint-result": "3900 nM"
  },
  {
    "entry-smiles": "CCOc1ccc2cc(-c3nn(CC4CCN(C)CC4)c4ncnc(N)c34)ccc2n1",
    "quantity": "Cmax",
    "endpoint-result": "260 nM"
  }
]

Item CCOc1ccc2cc(-c3nn(CC4CCN(C(C)=O)CC4)c4ncnc(N)c34)ccc2c1 has what recorded Cmax? 890 nM
